# System Name: GluN2C-containing NMDA receptors (Homo sapiens)
# Sequence (Q14957 20-1233, other chains not shown): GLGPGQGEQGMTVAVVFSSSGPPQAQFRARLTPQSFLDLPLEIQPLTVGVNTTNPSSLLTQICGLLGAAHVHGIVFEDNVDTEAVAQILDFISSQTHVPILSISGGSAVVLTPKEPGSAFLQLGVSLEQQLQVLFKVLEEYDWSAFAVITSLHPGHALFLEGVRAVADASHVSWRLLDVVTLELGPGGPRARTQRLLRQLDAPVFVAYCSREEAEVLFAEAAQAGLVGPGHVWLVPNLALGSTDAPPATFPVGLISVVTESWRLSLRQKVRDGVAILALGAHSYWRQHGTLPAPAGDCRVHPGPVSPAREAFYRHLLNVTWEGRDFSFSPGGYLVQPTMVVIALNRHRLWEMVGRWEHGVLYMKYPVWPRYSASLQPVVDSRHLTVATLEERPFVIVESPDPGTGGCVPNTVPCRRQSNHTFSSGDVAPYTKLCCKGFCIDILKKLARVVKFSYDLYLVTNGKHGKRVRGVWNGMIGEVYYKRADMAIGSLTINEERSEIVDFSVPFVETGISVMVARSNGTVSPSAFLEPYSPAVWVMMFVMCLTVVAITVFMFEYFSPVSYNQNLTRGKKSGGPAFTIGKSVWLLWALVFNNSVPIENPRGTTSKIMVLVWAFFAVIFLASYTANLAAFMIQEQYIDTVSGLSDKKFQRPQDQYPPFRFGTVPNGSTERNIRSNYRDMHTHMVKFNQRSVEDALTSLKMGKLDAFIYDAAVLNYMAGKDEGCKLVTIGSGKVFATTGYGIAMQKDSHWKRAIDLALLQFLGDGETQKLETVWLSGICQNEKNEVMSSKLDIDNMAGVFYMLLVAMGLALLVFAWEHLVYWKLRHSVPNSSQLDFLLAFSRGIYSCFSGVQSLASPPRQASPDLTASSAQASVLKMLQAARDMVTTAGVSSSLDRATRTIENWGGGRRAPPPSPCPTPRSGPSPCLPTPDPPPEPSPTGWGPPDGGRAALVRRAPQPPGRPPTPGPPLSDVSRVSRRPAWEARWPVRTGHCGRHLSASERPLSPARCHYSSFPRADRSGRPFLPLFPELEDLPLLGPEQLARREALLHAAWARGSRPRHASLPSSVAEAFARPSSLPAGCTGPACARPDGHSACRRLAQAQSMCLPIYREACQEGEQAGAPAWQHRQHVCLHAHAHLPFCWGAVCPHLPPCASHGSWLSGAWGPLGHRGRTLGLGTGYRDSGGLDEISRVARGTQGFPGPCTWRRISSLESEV
# Assay Method Text: Two-electrode voltage-clamp recordings from Xenopus laevis oocytes, GluN2C
# Format: cell-based
# Measurement Parameters: 10 μM test compound with glutamate 100 μM and glycine 30 μM; percent of response without compound; Tables 1-5
Measured Parameter: I10 μM/ICONTROL (mean ± SEM, %) Glu N2C

1. Cc1sc2ncn(CC(=O)N3CCCC3)c(=O)c2c1-c1ccc(Br)c(Br)c1 : 281

I = CCOC(=O)CCn1cnc2sc(C)c(-c3cccc(Cl)c3)c2c1=O
II = Cc1sc2ncn(CC(=O)N3CCCC3)c(=O)c2c1-c1cccc(I)c1
III = Cc1sc2ncn(CC(=O)N3CCCC3)c(=O)c2c1-c1cccc(N=[N+]=[N-])c1
INPUT: # desc sort on I10 μM/ICONTROL (mean ± SEM, %) Glu N2C across 3 compounds List each label, following the requested order.
OUTPUT: II, III, I
(II: 401%, III: 264%, I: 91%)
